experimental protocol: chemical genetic growth profiling, strain panel (AID 1159580);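 also: tested at 20 µM; growth read once vehicle control cultures reached saturation at 30 °C; 1 = growth at the plate median or of vehicle wells; lower values mean less growth of the strain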
assay context: S. cerevisiae strains, growth OD, strain wild type
Screen size: about 5,500 compounds; about 2,000 (36%) were called active. About 18% were inconclusive and are not listed. Rule as the data show it: active = normalized growth mostly below about 0.91 (no sharp cut-off); inconclusive = no clear call, values can overlap the other calls; inactive = mostly above about 0.92. This is one part of the list.
Outcome codes: active, inactive

[
  {
    "compound": "Nc1c2ccccc2nc2ccccc12 (tested in a mixture with another compound)",
    "classification": "active"
  },
  {
    "compound": "CCOC(=O)c1ccc2[nH]c(-c3ccccc3)cc(=O)c2c1",
    "classification": "inactive"
  },
  {
    "compound": "Cc1cc(O)cc(O)c1C(=O)O",
    "classification": "inactive"
  },
  {
    "compound": "CCOC(=O)OC(C)OC(=O)C1N2C(=O)C(NC(=O)[C@H](N)c3ccccc3)C2SC1(C)C (some centres undefined)",
    "classification": "inactive"
  }
]

====

experimental protocol: chemical genetic growth profiling, strain panel (AID 1159580)
assay context: S. cerevisiae deletion strains, growth OD, locus YJL154C, strain vps35, active compounds read low
The campaign covered roughly 5,500 compounds. About 2,000 (36%) were called active. Another 18% or so got no clear call; they are omitted. This is one part of the list.

[
  {
    "compound": "C[C@@H]1CC[C@H]2[C@@H](C)C(O)O[C@@H]3O[C@@]4(C)CC[C@@H]1[C@]32OO4 (some centres not stated)",
    "normalized growth": 0.42
  },
  {
    "compound": "CC(C)CC(N(C)C)C1(c2ccc(Cl)cc2)CCC1 (configuration not stated)",
    "normalized growth": 1.01
  },
  {
    "compound": "O=c1[nH]cc(F)c(=O)[nH]1",
    "normalized growth": 0.756
  },
  {
    "compound": "CCOC(=O)OC(C)OC(=O)C1N2C(=O)C(NC(=O)[C@H](N)c3ccccc3)C2SC1(C)C (some centres not stated)",
    "normalized growth": 0.989
  },
  {
    "compound": "Nc1c2c(nc3ccccc13)CCCC2O (configuration not stated)",
    "normalized growth": 1.01
  },
  {
    "compound": "CCCCCCCCCCCCCCC(C(=O)O)C(O)(CC(=O)OC)C(=O)O (configuration not stated)",
    "normalized growth": 1.01
  },
  {
    "compound": "COC(=O)Nc1nc2ccc(C(=O)c3ccccc3)cc2[nH]1",
    "normalized growth": 0.981
  }
]

====

experimental protocol: chemical genetic growth profiling, strain panel (AID 1159580)
assay context: S. cerevisiae deletion strains, growth OD, locus YLR371W, strain rom2, active compounds read low
Hit rate of the full screen: of about 5,500 compounds, about 2,000 (36%) were called active. About 18% were inconclusive and are not listed. The list shows a part of the results. Where a SMILES comes first, the peptide text is derived from it. The star is where a group is joined. For = O=C*

[
  {
    "compound": "COC(=O)Nc1nc2ccc(C(=O)c3ccccc3)cc2[nH]1",
    "normalized growth": 1.01
  },
  {
    "compound": "Cc1cc(O)cc(O)c1C(=O)O",
    "normalized growth": 0.987
  },
  {
    "compound": "Cc1cn([C@H]2C[C@H](N=[N+]=[N-])[C@@H](CO)O2)c(=O)[nH]c1=O",
    "normalized growth": 1.01
  },
  {
    "compound": "CC(C)(Sc1cc(C(C)(C)C)c(O)c(C(C)(C)C)c1)Sc1cc(C(C)(C)C)c(O)c(C(C)(C)C)c1",
    "normalized growth": 1.01
  },
  {
    "compound": "CSCCC(NC=O)C(=O)NC(Cc1ccccc1)C(=O)O (stereo not drawn) (For-Met-Phe-OH; configuration not given here)",
    "normalized growth": 1.02
  }
]

====

experimental protocol: chemical genetic growth profiling, strain panel (AID 1159580)
assay context: S. cerevisiae deletion strains, growth OD, locus YOR001W, strain rrp6, active compounds read low
Screen size: about 5,500 compounds; about 2,000 (36%) were called active. Inconclusive results (about 18%) are left out. This is one part of the list. Where a SMILES comes first, the peptide text is derived from it. Bridges are numbered along the chain shown (N, C = ends). [ ]: non-standard residue; d: D form. The star is where a group is joined. ξ: configuration not given here. ξDab(CH2SO3H) = NC(CCNCS(=O)(=O)O)C(=O)O; Heptanoyl(6-Me) = CC(C)CCCCC(=O)*; Dab = NCC[CH](N)C(=O)O

[
  {
    "compound": "CCOC(=O)OC(C)OC(=O)C1N2C(=O)C(NC(=O)[C@H](N)c3ccccc3)C2SC1(C)C (stereo partly specified)",
    "normalized growth": "1.01 (inactive)"
  },
  {
    "compound": "CC(C)=CCCC1(C)C=Cc2c(O)c3c(c(CC=C(C)C)c2O1)OC12C(=CC4CC1C(C)(C)OC2(C/C=C(/C)C(=O)O)C4=O)C3=O (stereo unspecified)",
    "normalized growth": "0.918 (inactive)"
  },
  {
    "compound": "CNCc1ccccc1",
    "normalized growth": "1.01 (inactive)"
  },
  {
    "compound": "CC1(C)CC(O)C2(C)CCC3(C)C(=CCC4C5(C)CCC(O)C(C)(CO)C5CCC43C)C2C1 (stereo unspecified)",
    "normalized growth": "1.04 (inactive)"
  },
  {
    "compound": "CCC(C)C1NC(=O)C(CCNCS(=O)(=O)O)NC(=O)C(NC(=O)C(CCNCS(=O)(=O)O)NC(=O)C(NC(=O)C(CCNCS(=O)(=O)O)NC(=O)CCCCC(C)C)C(C)O)CCNC(=O)C(C(C)O)NC(=O)C(CCNCS(=O)(=O)O)NC(=O)C(CCNCS(=O)(=O)O)NC(=O)C(C(C)CC)NC1=O (stereo unspecified) ({Heptanoyl(6-Me)}-[ξDab(CH2SO3H)]T[ξDab(CH2SO3H)][Dab][ξDab(CH2SO3H)]II[ξDab(CH2SO3H)][ξDab(CH2SO3H)]T; lactam 4-C; configuration not given here)",
    "normalized growth": "0.961 (inactive)"
  },
  {
    "compound": "CC(C)=CCCC1(C)C=Cc2c(O)c3c(c(CC=C(C)C)c2O1)OC12C(=CCCC1C(C)(C)O[C@@]2(C/C=C(\\C)C(=O)O)C(=O)O)C3=O (stereo partly specified)",
    "normalized growth": "0.901 (inactive)"
  }
]

====

experimental protocol: chemical genetic growth profiling, strain panel (AID 1159580);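 also: tested at 20 µM; growth read once vehicle control cultures reached saturation at 30 °C; 1 = growth at the plate median or of vehicle wells; lower values mean less growth of the strain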
assay context: S. cerevisiae deletion strains, growth OD, locus YLR342W, strain FKS1, active compounds read low
Screen size: about 5,500 compounds; about 2,000 (36%) were called active. Another 18% or so got no clear call; they are omitted. Some of the results follow.
Field 'label' (enum: 1 (yes) / 0 (no)). Set to 1 (yes) when normalized growth is strictly under 1; else 0 (no).

[
  {
    "compound": "Cc1cc(O)cc(C)c1Cl",
    "classification": "1 (yes)"
  },
  {
    "compound": "Cc1cc(O)cc(O)c1C(=O)O",
    "classification": "0 (no)"
  },
  {
    "compound": "CC1(C)CCC2(C(=O)O)CCC3(C)C(=CCC4C5(C)CCC(O)C(C)(C)C5C(O)CC43C)C2C1 (stereo not given)",
    "classification": "0 (no)"
  },
  {
    "compound": "C#C[C@]1(OC(C)=O)CCC2C3CCC4=C/C(=N\\O)CCC4C3CC[C@@]21CC (stereo not given in full)",
    "classification": "1 (yes)"
  }
]

====

Overview of recorded normalized growth for various compounds
experimental protocol: chemical genetic growth profiling, strain panel (AID 1159580);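 also: tested at 20 µM; growth read once vehicle control cultures reached saturation at 30 °C; 1 = growth at the plate median or of vehicle wells; lower values mean less growth of the strain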
assay context: S. cerevisiae deletion strains, growth OD, locus YJL115W, strain asf1, active compounds read low
Among all 5,500 compounds or so, about 2,000 (36%) were called active. Inconclusive results (about 18%) are left out. Some of the results follow.
endpoint label: normalized growth

[
  {
    "compound": "NC12CC3CC(CC(C3)C1)C2",
    "readout value": 0.999
  },
  {
    "compound": "NC(Cc1c[nH]c2ccccc12)C(=O)O (centres undefined)",
    "readout value": 1.03
  },
  {
    "compound": "CC(=O)O[C@@H]1CC[C@@]2(C)C(CC[C@]3(C)C2CC=C2C4CC(C)(C)CC[C@]4(C(=O)O)CC[C@]23C)C1(C)C (some centres undefined)",
    "readout value": 1.01
  },
  {
    "compound": "CC1(C)CC(O)C2(C)CCC3(C)C(=CCC4C5(C)CCC(O)C(C)(CO)C5CCC43C)C2C1 (centres undefined)",
    "readout value": 1.04
  }
]

====

experimental protocol: chemical genetic growth profiling, strain panel (AID 1159580);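 also: tested at 20 µM; growth read once vehicle control cultures reached saturation at 30 °C; 1 = growth at the plate median or of vehicle wells; lower values mean less growth of the strain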
assay context: S. cerevisiae deletion strains, growth OD, locus YJR066W, strain TOR1, active compounds read low
Hit rate of the full screen: of about 5,500 compounds, about 2,000 (36%) were called active. Inconclusive results (about 18%) are left out. The list shows a part of the results.
Field 'label' (enum: 1 / 0). Set to 1 when normalized growth is strictly under 0.9; else 0.

[
  {
    "compound": "CC(C)(C#N)O[C@@H]1O[C@H](CO)[C@@H](O)[C@H](O)[C@H]1O",
    "classification": 0
  },
  {
    "compound": "O=C(CNC(=O)c1ccc(Cl)cc1)NO",
    "classification": 0
  },
  {
    "compound": "C[C@@H]1C(=O)O[C@H]2[C@H]1CC[C@@]1(C)C=CC(=O)[C@@]3(C)O[C@@]213",
    "classification": 0
  },
  {
    "compound": "Clc1ccc2c(c1)c1ccccc1n2CN1CCOCC1",
    "classification": 1
  },
  {
    "compound": "Fc1ccc(NC(=S)N2CCCN(Cc3ccc(Cl)cc3Cl)CC2)cc1",
    "classification": 0
  },
  {
    "compound": "CN1[C@@H]2CC[C@@H]1CC(O)C2 (stereo not given in full)",
    "classification": 0
  }
]
